experiment: AUC in po dosed mouse administered as cassette dose
Type: ADME, organism-based
recordedConditions: in vivo
Entries and their measured AUC follow.

In the examples that follow, each entry is paired with its recorded AUC.
1. OCc1nnc(-c2ccc(N3CCC(c4ccc(C(F)(F)F)cc4)(C(F)(F)F)CC3)nn2)o1	3760 ng·h/mL
2. OCc1nnc(-c2ccc(N3CCC(c4ccc(C(F)(F)F)cc4)(C(F)(F)F)CC3)nn2)s1	1190 ng·h/mL
3. OCc1noc(-c2ccc(N3CCC(c4ccc(C(F)(F)F)cc4)(C(F)(F)F)CC3)nn2)n1	432 ng·h/mL

Now examine the next entry.
Asked: Which AUC is reported for this compound? OCc1nsc(-c2ccc(N3CCC(c4ccc(C(F)(F)F)cc4)(C(F)(F)F)CC3)nn2)n1
Given back: 1820 ng·h/mL
